- Test system: AncSZ;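 also: 11-residue human phosphosite peptides and single-mutation variants displayed on the E. coli surface, counted by deep sequencing, each peptide's frequency after selection divided by its frequency in the unselected input library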;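 also: frequency after pTyr selection over input frequency; kinase dosed for 20-30% of maximal phosphorylation in three min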
- ASSAY: phosphorylation enrichment, bacterial display (enrichment ratio); higher = better substrate or ligand; peptides without Tyr show the background
phosphorylation enrichment listing for selected sequences.
OBSERVABLE: phosphorylation enrichment

INSERT INTO results (sequence_data, observable, result) VALUES
  ('VMLENYSNLVS [ZFP69_Y109]', 'phosphorylation enrichment', 0.819),
  ('QDDYSYPSRQM [LDLR_Y847_G844D]', 'phosphorylation enrichment', 13.3),
  ('TTSQPYRCLCS [USH2A_Y534]', 'phosphorylation enrichment', 0.951),
  ('RGRSTCFWPRP [GAGE12J_Y9_Y9C_YF]', 'phosphorylation enrichment', 0.71);
